Tested on: ppGalNAc-T2 sensor
Assay: T2 sensor activation Q score (MG/GFP ratio z-score vs DMSO controls) (SD units); higher = more sensor activation (inhibition of ppGalNAc-T2 glycosylation)
Conditions: HEK293 sensor cells; 10 µM; 6 h
The full ranking holds about 1,700 compounds; the median of “T2 sensor activation Q score (MG/GFP ratio z-score vs DMSO controls)” is about 0.3, and the highest 2% start at about 1.9. This is one part of a sample in which the highest values are shown more often than they occur.
As shown below, each of these compounds has a reported T2 sensor activation Q score value.

CN(C)C=Nc1ccc(Cl)c(Cl)c1; -1.85
O=[N+]([O-])c1ccc2c3ccccc3[s+]([O-])c2c1 (configuration not stated); 0.25
CC(C)(C)CC(C)(C)N1CNC(=S)NC1; 0.45
O=C1c2ccccc2C(=Cc2cccnc2)c2ccccc21; 0.2
c1ccc(-c2nc3ccccc3s2)nc1; 0.6

The measured T2 sensor activation Q score associated with c1ccc(-c2nc(-c3ccccn3)nc(-c3ccccn3)n2)nc1 reads -0.55

// T2 sensor activation Q score value for Cc1cc(N2CCOCC2)nc(N2CCOCC2)n1 : 0.15

====

Test system: ppGalNAc-T2 sensor
Assay: T2 sensor activation Q score (MG/GFP ratio z-score vs DMSO controls) (SD units); higher = more sensor activation (inhibition of ppGalNAc-T2 glycosylation)
Conditions: HEK293 sensor cells; 10 µM; 6 h
Whole data set: some 1,700 compounds, median “T2 sensor activation Q score (MG/GFP ratio z-score vs DMSO controls)” near 0.3, cut for the highest 2% near 1.9. Only a selection was taken, and the highest values are over-represented in it overall.
PROPERTY_NAME: T2 sensor activation Q score
Lab note: jot the number down without any unit.

CCCCSc1ncnc2[nH]ncc12; 0.45

Form field T2 sensor activation Q score, entry COc1ccccc1NC(=O)Oc1cccc(OC(=O)c2ccccc2)c1 : 0.2

// T2 sensor activation Q score lookup, molecule = O=c1nc(Oc2ccccc2)nc2ncccn12 , result: 1.9

So for N#Cc1nnn(-c2ccc(Cl)cc2)c1N , the logged T2 sensor activation Q score turned out to be 1

Kindly note the recorded T2 sensor activation Q score for COc1c(O)ccc2c1CN1CCc3cc4c(cc3C1C2)OCO4 (configuration not stated) , which is -1.3

====

System: ppGalNAc-T2 sensor
Assay: T2 sensor activation Q score (MG/GFP ratio z-score vs DMSO controls) (SD units); higher = more sensor activation (inhibition of ppGalNAc-T2 glycosylation)
Settings: HEK293 sensor cells; 10 µM; 6 h
In all, about 1,700 compounds were measured (“T2 sensor activation Q score (MG/GFP ratio z-score vs DMSO controls)”: median about 0.3, highest 2% from about 1.9 on). This excerpt belongs to a sample that is enriched for the highest values.
Field: class. Source value: T2 sensor activation Q score. Ranges: low (below -0.5), medium (-0.5 to below 1), high (1 or more)

Some solved cases for reference:
Clc1nnc(NC2CCCCC2)c(Cl)c1Cl; medium
CC(=O)Oc1c(C)c(OC(C)=O)c2c(c1C(C)=O)OC1CC(=O)C(C(C)=O)=C(O)C21C (configuration not stated); low
C(=C\CSc1ccccn1)/CSc1ccccn1; low
Cc1ccc(S(=O)(=O)NC(=O)Nc2nccs2)cc1; low
COC(=O)c1cc2c(n1S(=O)(=O)c1ccc(C)cc1)C(=O)C(=O)c1[nH]cc(C(=O)OCc3ccccc3)c1-2; high
NC(N)=N/N=C\c1c(Cl)cccc1Cl; medium

Where would Cc1ccc(S(=O)(=O)NNC(=O)C23CCC(CC2)C3)cc1 land among the classes by reported T2 sensor activation Q score?
high

Hi, small favor: classify O=C1CC(c2ccc(O)cc2)Oc2cc(O)cc(O)c21 (configuration not stated) by its T2 sensor activation Q score when you get a moment.
medium

Bin? CCSc1nc(=S)cc(C)[nH]1
medium

Which bin, given its T2 sensor activation Q score, does NC(=O)C1=C(N)c2ccccc2C1c1ccccc1 (configuration not stated) occupy?
high

# bin lookup: classify C(=C\c1ccccn1)/c1ccccn1 by its T2 sensor activation Q score
high

====

Tested on: ppGalNAc-T2 sensor
Experiment: T2 sensor activation Q score (MG/GFP ratio z-score vs DMSO controls) (SD units); higher = more sensor activation (inhibition of ppGalNAc-T2 glycosylation)
Settings: HEK293 sensor cells; 10 µM; 6 h
Over roughly 1,700 compounds, “T2 sensor activation Q score (MG/GFP ratio z-score vs DMSO controls)” has its median near 0.3; the highest 2% begin near 1.9. For the sample, the highest values were picked, then their nearest neighbours and some compounds at random.
PROPERTY_NAME: T2 sensor activation Q score

T2 sensor activation Q score value, target or system ppGalNAc-T2 sensor, for S=c1nc[nH]c2c1ncn2C1CCCC1 : 1.4

====

System: ppGalNAc-T2 sensor
Assay: T2 sensor activation Q score (MG/GFP ratio z-score vs DMSO controls) (SD units); higher = more sensor activation (inhibition of ppGalNAc-T2 glycosylation)
Details: HEK293 sensor cells; 10 µM; 6 h
The full ranking holds about 1,700 compounds; the median of “T2 sensor activation Q score (MG/GFP ratio z-score vs DMSO controls)” is about 0.3, and the highest 2% start at about 1.9. The sample as a whole holds a higher share of the highest values than the screen did.
Everything with T2 sensor activation Q score lower than -0.05 is criterion not met; everything else, including exactly -0.05, is criterion met.

Solved cases (2 shown):
O=C(Nc1cccc(-c2nc3ccccc3[nH]2)c1)c1ccc(C(=O)Nc2cccc(-c3nc4ccccc4[nH]3)c2)cc1; criterion met
Clc1ccc2nc3ccccc3cc2c1; criterion met

Could you please find out whether COc1ccc(-c2cc(-c3ccccc3)c(-c3ccccc3)nn2)cc1 has T2 sensor activation Q score that meets -0.05 or exceeds it?
criterion not met

State whether the measured T2 sensor activation Q score reaches -0.05, counting equality as reaching it, for COc1ccc(Cc2nnc(SC)n2-c2ccc(F)cc2)cc1OC
criterion met

Kindly determine if T2 sensor activation Q score recorded for COc1ccccc1/C=C(\C#N)C(=O)O is above or exactly -0.05.
criterion met

Can CCC1(CC)C(=O)NC(=S)N=C1N be said to have T2 sensor activation Q score at or above -0.05?
criterion met

Check if T2 sensor activation Q score >= -0.05 (inclusive). Item: CC[C@]1(O)C[C@H]2CN(CCc3c([nH]c4ccccc34)[C@@](C(=O)OC)(c3cc4c(cc3OC)N(C=O)[C@H]3[C@@](O)(C(=O)OC)[C@H](OC(C)=O)[C@]5(CC)C=CCN6CC[C@]43[C@@H]65)C2)C1
criterion met

// inclusive: T2 sensor activation Q score at least -0.05? input: O=C(/C=C/c1ccccc1)CC(c1ccccc1)N1CCOCC1 (configuration not stated)
criterion not met

Quick check, T2 sensor activation Q score >= -0.05? CC1=CN2C(c3cccc([N+](=O)[O-])c3)=NON(c3ccc(C)cn3)C2C=C1 (configuration not stated)
criterion met

Does the compound O=c1cccc2cc(O)c(O)c(O)c2c1O have recorded T2 sensor activation Q score that is -0.05 or more?
criterion met

====

Test system: ppGalNAc-T2 sensor
Assay: T2 sensor activation Q score (MG/GFP ratio z-score vs DMSO controls) (SD units); higher = more sensor activation (inhibition of ppGalNAc-T2 glycosylation)
Settings: HEK293 sensor cells; 10 µM; 6 h
Over roughly 1,700 compounds, “T2 sensor activation Q score (MG/GFP ratio z-score vs DMSO controls)” has its median near 0.3; the highest 2% begin near 1.9. The sample holds the highest values, similar compounds and a random draw of the others, so the mix is not that of the screen.
PROPERTY_NAME: T2 sensor activation Q score
Lab note: record the figure alone, no unit after it.

Some solved entries appear below for comparison.
C=C1SC(=Nc2c(C)cccc2Cl)N(C(=O)c2sc3ccccc3c2Cl)C12CCCCC2; 1.1
CN1C(=C=Cc2cc(I)c(O)c(I)c2)C(C)(C)c2ccccc21; 3.65
O=c1[nH]c(=S)c2ncn(-c3ccccc3)c2[nH]1; -1.3
NC(=O)NC(=O)c1nccnc1C(=O)O; -0.2
CC1=NCC(C)c2ccccc21 (configuration not stated); 3.25

Notebook: COc1ccc(OC(=O)Nc2ccc([N+](=O)[O-])cc2OC)cc1 , T2 sensor activation Q score read as 0.95

Recorded result, C#CC(C)OCC1CNC(=S)O1 (configuration not stated) , T2 sensor activation Q score: -1.4

response.value for Cc1ccc(Cl)cc1NC(=O)c1cc2ccccc2cc1O (field: T2 sensor activation Q score) = -0.35

// recorded T2 sensor activation Q score for CSc1nc(N)c(C(=O)Nc2ccc([N+](=O)[O-])cc2)s1 : 0.05

The measured T2 sensor activation Q score associated with CCOC(=O)Nc1ccc2nc(N3CCCCCC3)sc2c1 reads 0.95

Reported T2 sensor activation Q score for O=C1C=CC(=O)N1c1ccc(I)cc1Cl was -0.45

Consider Cc1cc(-n2cnc3c(=O)[nH]cnc32)ccc1N . Its measured T2 sensor activation Q score is 1.35
